Tested on: SARS-COV-2 USA_WA1/2020
experimental-context: SARS-CoV-2 USA_WA1/2020, Vero 76, CPE neutral red, day 5
measurement-name: EC50: 50% effective antiviral concentration (µg/mL)
Just the number please, in µg/mL, no unit attached.

Examples from the recorded data:
substance: GGTAGGTAAAAACCTAATAT [5TERM (1-20)] (phosphorothioate backbone, further chemistry not given here)
test-target: SARS-COV-2 USA_WA1/2020
measure-unit: µg/mL
observed-value: 7.1
--
substance: GGTAGGTAAAAACCTAATAT [5TERM (1-20) MOE] (2'-MOE modified, pattern not given here)
test-target: SARS-COV-2 USA_WA1/2020
measure-unit: µg/mL
observed-value: 4.9

# input Name the recorded EC50: 50% effective antiviral concentration of the item cggcatgtct attttgta (antisense CGGCATGTCTATTTTGTA; chemistry not given here) [OT-101] in your answer.
# output 2.0

# input Name the recorded EC50: 50% effective antiviral concentration of the item CATTGTAGATGTCAAAAGCC (phosphorothioate backbone, further chemistry not given here) [FS-2a (13539-13558)] in your answer.
# output 17

====

Tested on: SARS-COV-2 USA_WA1/2020
experimental-context: SARS-CoV-2
measurement-name: SI=CC50/EC50

substance: AGCCCTGTATACGAC [FS (13,458-13,472)] (antisense AGCCCTGTAGACGAC; phosphorothioate backbone, further chemistry not given here)
test-target: SARS-COV-2 USA_WA1/2020
SI=CC50/EC50: 53

# input Name the recorded SI=CC50/EC50 of the item GGTAGGTAAAAACCTAATAT [5TERM (1-20) MOE] (2'-MOE modified, pattern not given here) in your answer.
# output 120

# input Name the recorded SI=CC50/EC50 of the item CGTTTAGAGAACAGATCTAC [TRS2-2 53-72 MOE] (2'-MOE modified, pattern not given here) in your answer.
# output >16

# input Name the recorded SI=CC50/EC50 of the item CATTGTAGATGTCAAAAGCC (phosphorothioate backbone, further chemistry not given here) [FS-2a (13539-13558)] in your answer.
# output >59

# input Name the recorded SI=CC50/EC50 of the item TAAAGTTCGTTTAGAGAACAG (phosphorothioate backbone, further chemistry not given here) [TRS2 (56-76)] in your answer.
# output >14

# input Name the recorded SI=CC50/EC50 of the item CGTTTAGAGAACAGATCTAC [TRS2-2 53-72] (phosphorothioate backbone, further chemistry not given here) in your answer.
# output >530

# input Name the recorded SI=CC50/EC50 of the item cggcatgtct attttgta (antisense CGGCATGTCTATTTTGTA; chemistry not given here) [OT-101] in your answer.
# output >500

# input Name the recorded SI=CC50/EC50 of the item CTCCCTCATGGTGGCAGTTGA (chemistry not given here) [RSV, reference compound] in your answer.
# output >1.6

# input Name the recorded SI=CC50/EC50 of the item AGCCCTGTATACGAC [FS (13.458-13.274)MOE] (2'-MOE modified, pattern not given here) in your answer.
# output >40

# input Name the recorded SI=CC50/EC50 of the item GGTAGGTAAAAACCTAATAT [5TERM (1-20)] (phosphorothioate backbone, further chemistry not given here) in your answer.
# output >140

# input Name the recorded SI=CC50/EC50 of the item GTTCGTTTAGAGAACAGATC (phosphorothioate backbone, 5-methyl C, further chemistry not given here) [TRS1 (53-72)] in your answer.
# output 95

====

Tested on: SARS-COV-2 USA_WA1/2020
experimental-context: SARS-CoV-2, Vero 76 cells
# SI (CC50/EC50) values compiled below

Examples from the recorded data:
sequence-string: CGTTTAGAGAACAGATCTAC [TRS2-2 53-72 MOE] (2'-MOE modified, pattern not given here)
test-target: SARS-COV-2 USA_WA1/2020
SI (CC50/EC50): >16
--
sequence-string: GTTCGTTTAGAGAACAGATC (phosphorothioate backbone, 5-methyl C, further chemistry not given here) [TRS1 (53-72)]
test-target: SARS-COV-2 USA_WA1/2020
SI (CC50/EC50): 95
--
sequence-string: CTCCCTCATGGTGGCAGTTGA (chemistry not given here) [RSV, reference compound]
test-target: SARS-COV-2 USA_WA1/2020
SI (CC50/EC50): >1.6
--
sequence-string: CATTGTAGATGTCAAAAGCC (phosphorothioate backbone, further chemistry not given here) [FS-2a (13539-13558)]
test-target: SARS-COV-2 USA_WA1/2020
SI (CC50/EC50): >59
--
sequence-string: CGTTTAGAGAACAGATCTAC [TRS2-2 53-72] (phosphorothioate backbone, further chemistry not given here)
test-target: SARS-COV-2 USA_WA1/2020
SI (CC50/EC50): >530

Now for a further sequence.
# input Name the recorded SI (CC50/EC50) of the item TAAAGTTCGTTTAGAGAACAG (phosphorothioate backbone, further chemistry not given here) [TRS2 (56-76)] in your answer.
# output >14

====

Tested on: SARS-COV-2 USA_WA1/2020
experimental-context: read-out: EC50 (value in brackets); SARS-CoV-2 USA_WA1/2020, Vero 76
measurement-name: EC50

# input Name the recorded EC50 of the item cggcatgtct attttgta (antisense CGGCATGTCTATTTTGTA; chemistry not given here) [OT-101] in your answer.
# output 0.33 µM

====

# CC50: 50% cytotoxic concentration of compound without virus added values compiled below
Test system: Vero 76 cells
experimental-context: run alongside SARS-CoV-2 test

Examples from the recorded data:
sequence-string: AGCCCTGTATACGAC [FS (13.458-13.274)MOE] (2'-MOE modified, pattern not given here)
observed-value: >1000 µg/mL
--
sequence-string: CGTTTAGAGAACAGATCTAC [TRS2-2 53-72 MOE] (2'-MOE modified, pattern not given here)
observed-value: >1000 µg/mL

Now for a further sequence.
# input Name the recorded CC50: 50% cytotoxic concentration of compound without virus added of the item CGTTTAGAGAACAGATCTAC [TRS2-2 53-72] (phosphorothioate backbone, further chemistry not given here) in your answer.
# output >1000 µg/mL

====

Tested on: Vero 76 cells
experimental-context: run alongside SARS-CoV-2 test
# CC50: 50% cytotoxic concentration of compound without virus added values compiled below
Just the number please, in µg/mL, no unit attached.

Examples from the recorded data:
sequence-string: GGTAGGTAAAAACCTAATAT [5TERM (1-20) MOE] (2'-MOE modified, pattern not given here)
measure-unit: µg/mL
observed-value: 610

sequence-string: AGCCCTGTATACGAC [FS (13,458-13,472)] (antisense AGCCCTGTAGACGAC; phosphorothioate backbone, further chemistry not given here)
measure-unit: µg/mL
observed-value: 430

# input Report CC50: 50% cytotoxic concentration of compound without virus added from Vero 76 cells testing of GTTCGTTTAGAGAACAGATC (phosphorothioate backbone, 5-methyl C, further chemistry not given here) [TRS1 (53-72)]
# output 720

====

Test system: SARS-COV-2 USA_WA1/2020
experimental-context: SARS-CoV-2, Vero 76 cells
measurement-name: SI (CC50/EC50)
Note: the reply should be a number with no unit written.

substance: GGTAGGTAAAAACCTAATAT [5TERM (1-20) MOE] (2'-MOE modified, pattern not given here)
SI (CC50/EC50): 120

# input Name the recorded SI (CC50/EC50) of the item AGCCCTGTATACGAC [FS (13,458-13,472)] (antisense AGCCCTGTAGACGAC; phosphorothioate backbone, further chemistry not given here) in your answer.
# output 53

====

Tested on: SARS-COV-2 USA_WA1/2020
experimental-context: SARS-CoV-2 USA_WA1/2020, Vero 76, CPE neutral red, day 5
hey, just use yes (1) if measured EC50: 50% effective antiviral concentration is less than 20 µg/mL, otherwise no (0)

sequence-string: GTTCGTTTAGAGAACAGATC (phosphorothioate backbone, 5-methyl C, further chemistry not given here) [TRS1 (53-72)]
test-target: SARS-COV-2 USA_WA1/2020
discrete-label: yes (1)

sequence-string: TAAAGTTCGTTTAGAGAACAG (phosphorothioate backbone, further chemistry not given here) [TRS2 (56-76)]
test-target: SARS-COV-2 USA_WA1/2020
discrete-label: no (0)

sequence-string: CGTTTAGAGAACAGATCTAC [TRS2-2 53-72 MOE] (2'-MOE modified, pattern not given here)
test-target: SARS-COV-2 USA_WA1/2020
discrete-label: no (0)

# input Is 20 µg/mL strictly greater than the sequence's reported EC50: 50% effective antiviral concentration? sequence: AGCCCTGTATACGAC [FS (13.458-13.274)MOE] (2'-MOE modified, pattern not given here)
# output no (0)

# input Is 20 µg/mL strictly greater than the sequence's reported EC50: 50% effective antiviral concentration? sequence: CGTTTAGAGAACAGATCTAC [TRS2-2 53-72] (phosphorothioate backbone, further chemistry not given here)
# output yes (1)

# input Is 20 µg/mL strictly greater than the sequence's reported EC50: 50% effective antiviral concentration? sequence: AGCCCTGTATACGAC [FS (13,458-13,472)] (antisense AGCCCTGTAGACGAC; phosphorothioate backbone, further chemistry not given here)
# output yes (1)

The reported numbers originate from patent US20230201290A1.
